Test system: Pichia kudriavzevii
Assay: Antifungal activity against Pichia kudriavzevii NRRL Y-7179 after 24 hr by NCCLS broth microdilution method
Assay type: functional
Conditions: NRRL Y-7179, 24 h
observation.type: MIC (µg/mL)

O=C(N/N=C/c1ccc(F)cc1)c1ccc(F)cc1 ... 500
CC(=O)N1N=C(c2ccc(F)cc2)OC1c1ccc(Br)cc1 (stereo not given) ... 500
COc1ccc(/C=N/NC(=O)c2ccc(F)cc2)cc1 ... 500
CN(C)c1ccc(/C=N/NC(=O)c2ccc(F)cc2)cc1 ... 500
O=C(N/N=C/c1ccc(Br)cc1)c1ccc(F)cc1 ... 500

Hey, just so you know, these numbers are from ChEMBL document CHEMBL3046330.
